growth values, listed per item
- Test system: OVCAR-5 ovarian
- ASSAY_COMMENT: NCI-60 one-dose screen, 48 h (100 = growth as untreated, 0 = no growth, -100 = all killed)
- SETTINGS: 10 µM unless noted
This is part of a sample that, as a whole, favours compounds with a hit. Of some 83,000 tested, about 20% had one in any assay.
Kindly answer with a numeric value in %, unit omitted.

| MOLECULE | OBSERVABLE | MEASURED_RESULT |
| --- | --- | --- |
| C=C1CC[C@@H]2[C@]3(C)COC(c4cn[nH]c4-c4cccc(Cl)c4)O[C@@H]3CC[C@@]2(C)[C@@H]1C/C=C1/C(=O)OCC1O (stereo partly drawn) | growth | -62 |
| Cc1ccc(-c2nc(C#N)c(S(=O)(=O)N3CCN(S(=O)(=O)c4ccccc4)CC3)o2)cc1 | growth | 19.5 |

# input Reported growth for COc1ccc(C2=NN(C(C)=O)C(c3ccc(OCc4ccc(Cl)cc4)c(OC)c3)C2)cc1OC (stereo not drawn) : what is it?
# output 79.8
